Source listed as patent US12383631B2.

- Target: T1, human IL-18 binding protein isoform a (IL-18BPa) (Homo sapiens, UniProt O95998)
- T1 sequence (O95998 31-194): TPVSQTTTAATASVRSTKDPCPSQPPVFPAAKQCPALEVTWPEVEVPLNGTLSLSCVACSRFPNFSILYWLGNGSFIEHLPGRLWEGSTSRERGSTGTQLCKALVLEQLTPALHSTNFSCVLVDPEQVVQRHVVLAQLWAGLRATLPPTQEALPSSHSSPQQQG
- Measurement Notes: IL-18 Binding Protein inhibition cellular assay in NK-92 cells (Example 4 / 17C)
- Format: cell-based
- Measurement Setup: inhibition by IL-18BP of IFNγ stimulation in NK92 cells
// reported IC50 per item
All answers are understood in nM, so give the number only.

Would you please look over these solved cases?
>>> endpoint_value("C157: IL-18 polypeptide: V11I, C38A, K53A, C76A, C127A, D132A (protein) YFGKLESKLSIIRNLNDQVLFIDQGNRPLFEDMTDSDARDNAPRTIFIISMYADSQPRGMAVTISVKCEKISTLSAENKIISFKEMNPPDNIKDTKSDIIFFQRSVPGHDNKMQFESSSYEGYFLAAEKERALFKLILKKEDELGDRSIMFTVQNED")
6.08
>>> endpoint_value("C159: IL-18 polypeptide: V11I, C38A, K53A, C76A, H109A, C127A (protein) YFGKLESKLSIIRNLNDQVLFIDQGNRPLFEDMTDSDARDNAPRTIFIISMYADSQPRGMAVTISVKCEKISTLSAENKIISFKEMNPPDNIKDTKSDIIFFQRSVPGADNKMQFESSSYEGYFLAAEKERDLFKLILKKEDELGDRSIMFTVQNED")
1.81

// query IC50 value for entry C145: IL-18 polypeptide: V11I, C38A, K53A, S55A, C76A, C127A (protein) YFGKLESKLSIIRNLNDQVLFIDQGNRPLFEDMTDSDARDNAPRTIFIISMYADAQPRGMAVTISVKCEKISTLSAENKIISFKEMNPPDNIKDTKSDIIFFQRSVPGHDNKMQFESSSYEGYFLAAEKERDLFKLILKKEDELGDRSIMFTVQNED
10.2

Could you tell me which IC50 is on file for C149: IL-18 polypeptide: V11I, E31A, C38A, K53A, C76A, C127A (protein) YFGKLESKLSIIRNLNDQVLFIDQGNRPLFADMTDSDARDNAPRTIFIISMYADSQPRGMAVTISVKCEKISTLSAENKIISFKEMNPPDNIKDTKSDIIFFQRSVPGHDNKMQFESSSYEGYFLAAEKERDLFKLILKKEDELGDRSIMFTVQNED ?
1.17

Record request: IC50 value, item C163: IL-18 polypeptide: V11I, C38A, C76A, Q103K, C127A (protein) YFGKLESKLSIIRNLNDQVLFIDQGNRPLFEDMTDSDARDNAPRTIFIISMYKDSQPRGMAVTISVKCEKISTLSAENKIISFKEMNPPDNIKDTKSDIIFFKRSVPGHDNKMQFESSSYEGYFLAAEKERDLFKLILKKEDELGDRSIMFTVQNED
0.823
